All values here come from paper PMC8348200.

Tested on: E. coli UB1005
Experiment: microbe, parasite or virus in culture
Assay type: cell-based, Escherichia coli
Conditions: UB1005, 24 h; read-out: MICs, E. coli UB1005
No end group written: not given here.
readout-kind: MIC

Answer with the recorded MIC for the substance listed here: RRLSLWLSLRR-NH2 [Peptide P2] 2 µM

Answer with the recorded MIC for the substance listed here: RRISIWISIRR-NH2 [Peptide P17] 16 µM

Answer with the recorded MIC for the substance listed here: RRFSFWFSFRR-NH2 [Peptide P19] 128 µM

Answer with the recorded MIC for the substance listed here: RRLALWLALRR-NH2 [Peptide P1] 2 µM

---

System: L. rhamnosus 1.0385
Test: microbe, parasite or virus in culture
Type: cell-based, Lactobacillus rhamnosus
Conditions: 24 h; read-out: MICs, L. rhamnosus 1.0385
No end group written: not given here.
Assign MIC to each entry below.
Give the value, in units of µM, as a plain number.

Answer with the recorded MIC for the substance listed here: RRISIWISIRR-NH2 [Peptide P17] 8

Answer with the recorded MIC for the substance listed here: RRLSLWLSLRR-NH2 [Peptide P2] 8

Answer with the recorded MIC for the substance listed here: RRLALWLALRR-NH2 [Peptide P1] 8

---

System: E. coli 25922
Experiment: microbe, parasite or virus in culture
Assay type: cell-based, Escherichia coli
Conditions: 25922, 24 h; read-out: MICs, E. coli 25922
No end group written: not given here.
readout-kind: MIC (µM)
Give the value, in units of µM, as a plain number.

State, for E. coli 25922, measured MIC of the substance listed here: RRLALWLALRR-NH2 [Peptide P1] 4

State, for E. coli 25922, measured MIC of the substance listed here: RRISIWISIRR-NH2 [Peptide P17] 128

State, for E. coli 25922, measured MIC of the substance listed here: RRLSLWLSLRR-NH2 [Peptide P2] 4

State, for E. coli 25922, measured MIC of the substance listed here: RRFSFWFSFRR-NH2 [Peptide P19] 128
